In this section we review reported IC50 values for a set of compounds.
Biological target: CDK1/CyclinB (Homo sapiens (Human))
Sequence (P06493 whole entry): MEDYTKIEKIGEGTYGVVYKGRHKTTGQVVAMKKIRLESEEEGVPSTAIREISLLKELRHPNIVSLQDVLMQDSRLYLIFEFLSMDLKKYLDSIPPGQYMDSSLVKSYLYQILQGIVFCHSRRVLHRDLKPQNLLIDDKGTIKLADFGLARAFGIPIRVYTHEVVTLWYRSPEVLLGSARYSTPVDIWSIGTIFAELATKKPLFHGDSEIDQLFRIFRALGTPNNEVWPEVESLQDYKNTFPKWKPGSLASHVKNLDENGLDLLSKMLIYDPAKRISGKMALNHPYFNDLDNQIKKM
Sequence (P14635 whole entry partner): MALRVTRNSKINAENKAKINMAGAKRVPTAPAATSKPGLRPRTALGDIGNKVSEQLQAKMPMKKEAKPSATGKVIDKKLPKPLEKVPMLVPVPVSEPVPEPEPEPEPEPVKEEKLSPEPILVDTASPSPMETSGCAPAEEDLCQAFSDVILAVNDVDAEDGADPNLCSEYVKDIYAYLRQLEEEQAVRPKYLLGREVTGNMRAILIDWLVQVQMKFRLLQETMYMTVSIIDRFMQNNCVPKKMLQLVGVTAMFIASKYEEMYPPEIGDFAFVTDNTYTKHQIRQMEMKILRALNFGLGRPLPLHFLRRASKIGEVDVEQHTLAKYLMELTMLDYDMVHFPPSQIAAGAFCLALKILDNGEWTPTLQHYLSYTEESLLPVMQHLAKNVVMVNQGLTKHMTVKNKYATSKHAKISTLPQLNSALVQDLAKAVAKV
Assay: CDK1/CyclinB kinase inhibitory activity (Caliper mobility shift)
Conditions: read-out: CDK1/Cyclin B1 IC50

Sample records with IC50:
INSERT INTO assay_data (compound, meas_value) VALUES
  ('CC1(O)CC(F)(F)CC1Oc1nc(NC2CCN(S(=O)(=O)CC3CC3)CC2)ncc1C#N (single isomer, unassigned) [Example 44a]', '0.1 to 1 µM'),
  ('CC1CCCC(O)C1Oc1nc(Nc2ccc(S(N)(=O)=O)cc2)ncc1C(F)(F)F (single isomer, unassigned) [Example 112b]', '0.1 to 1 µM'),
  ('C[C@]1(O)COC[C@H]1Oc1nc(NC2CCN(S(C)(=O)=O)CC2)ncc1C(F)(F)F (relative stereo) [Example 104a]', '0.01 to 0.1 µM'),
  ('CC1(O)COCCC1Oc1nc(NC2CCN(S(C)(=O)=O)CC2)ncc1C#N (single isomer, unassigned) [Example 45a]', '0.01 to 0.1 µM'),
  ('N#Cc1cnc(Nc2ccc(S(N)(=O)=O)cc2)nc1OCC1CCCC1O (single isomer, unassigned) [Example 19a]', '0.01 to 0.1 µM'),
  ('CC(C)NS(=O)(=O)c1ccc(Nc2ncc(C#N)c(OC3CCC(O)C3)n2)cc1 (single isomer, unassigned) [Example 29a]', '0.1 to 1 µM'),
  ('[2H]C([2H])([2H])NS(=O)(=O)c1ccc(Nc2ncc(Cl)c(OC3COCC3(C)O)n2)cc1 (single isomer, unassigned) [Example 140a]', '0.01 to 0.1 µM');

IC50 in this record for N#Cc1cnc(Nc2ccc(S(N)(=O)=O)cc2)nc1N1CCC[C@@H](CO)C1 [Example 79] : 0.1 to 1 µM
